B1: POU domain, class 2, transcription factor 1, residues 285 to 354; numbered along this chain, P14859 (parent)
chain: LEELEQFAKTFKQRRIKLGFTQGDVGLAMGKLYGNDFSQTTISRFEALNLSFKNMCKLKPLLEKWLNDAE

Variants of: B1
Assay: abundance fitness (aPCA) (normalised: wild type 0, dead -1); higher = more abundant; growth selection in yeast, the domain comes from the species named
Details: Homo sapiens
experimental endpoint: abundance fitness
Write the number on its own, no unit after it.

[[record]]
mutant_code = "E3F"
experimental_endpoint = "abundance fitness"
reported_result = -0.159

[[record]]
mutant_code = "E2G"
experimental_endpoint = "abundance fitness"
reported_result = -0.303

[[record]]
mutant_code = "Q6D"
experimental_endpoint = "abundance fitness"
reported_result = -0.086


Problem: Given the variant `R14P` , what is its reported abundance fitness?
Result: -1.05

Problem: Given the variant `D68C` , what is its reported abundance fitness?
Result: -0.106
